# method_summary: Mouse PK, single oral gavage
# conditions_used: read-out: Mouse Cmax; oral gavage, single dose 0.3 mg/kg
measured_metric: Cmax (nM)
Provide only the numeric value, understood in nM.

-- ask Given the entry CCC(=O)N1CCC(NC(=O)Nc2ccc(OC(F)(F)F)cc2)CC1 [drawing 62] , report its measured Cmax.
-- reply 495

====

# method_summary: Mouse PK, single oral gavage
# conditions_used: mouse, in vivo, po, 0.3 mg/kg, Mouse T1/2, oral gavage, single dose 0.3 mg/kg
# satisfied = half-life below 200 min (exclusive); not satisfied = half-life at/above 200 min

Completed entries (count: 2):
O=C(Nc1ccc(C(F)(F)F)cc1)NC1CCN(C(=O)c2cc[nH]c2)CC1    satisfied
O=C(Nc1ccc(C(F)(F)F)cc1)NC1CCN(C(=O)C2(C(F)(F)F)CC2)CC1    not satisfied

-- ask # strict comparison: is reported half-life < 200 min? input = CC(C)C(=O)N1CCC(NC(=O)Nc2ccc(C(F)(F)F)c(F)c2)CC1
-- reply not satisfied

-- ask I'd appreciate it if you could check whether Cc1ccoc1C(=O)N1CCC(NC(=O)Nc2ccc(OC(F)(F)F)cc2)CC1 has half-life smaller than 200 min.
-- reply not satisfied

-- ask Is 200 min strictly greater than the molecule's reported half-life? molecule: O=C(O)CC1(CC(=O)N2CCC(NC(=O)Nc3ccc(C(F)(F)F)cc3)CC2)CCCCC1
-- reply not satisfied

-- ask Lab log: compare recorded half-life with 200 min; is it strictly lower for O=C(Nc1ccc(C(F)(F)F)cc1)NC1CCN(C(=O)C2CCOCC2)CC1 ?
-- reply not satisfied

-- ask Dear reviewer, please state whether CCC(=O)N1CCC(NC(=O)Nc2ccc(OC(F)(F)F)c(F)c2)CC1 has half-life strictly beneath 200 min.
-- reply not satisfied

-- ask Determine whether this molecule shows half-life lower than 200 min (ties excluded): O=C(Nc1ccc(C(F)(F)F)cc1)NC1CCN(C(=O)[C@@H]2CCOC2)CC1
-- reply satisfied

-- ask Please check: half-life for O=C(Nc1ccc(OC(F)(F)F)c(F)c1)NC1CCN(C(=O)C2CCCOC2)CC1 (stereo not shown) , strictly under 200 min or not?
-- reply not satisfied

====

Quick list: AUC per entry.
# method_summary: Rat PK, single oral gavage
# Type: in vivo
# conditions_used: rat, in vivo, single dose 0.1 mg/kg, PEG 300
# unit: µM·h | format: bare number

Check out these entries, answers already filled in.
CC[C@H](C)C(=O)N1CCC(NC(=O)Nc2ccc(OC(F)(F)F)c(OC(F)(F)F)c2)CC1    0.075
O=C(Nc1ccc(OC(F)(F)F)c(F)c1)NC1CCN(C(=O)C2(C(F)(F)F)CC2)CC1    0.486

-- ask I'd like to know its AUC. The molecule in question is CC[C@H](C)C(=O)N1CCC(NC(=O)Nc2ccc(OC(F)(F)F)c(Cl)c2)CC1
-- reply 0.241

-- ask Item under review: Cc1occc1C(=O)N1CCC(NC(=O)Nc2ccc(OC(F)(F)F)cc2)CC1 . Reported AUC?
-- reply 1.08

-- ask Returns the measured AUC for the input molecule. Input: O=C(Nc1ccc(OC(F)(F)F)cc1)NC1CCN(C(=O)C2CCOCC2)CC1
-- reply 0.234

====

# method_summary: Solubility in buffer
# Type: physicochemical
# conditions_used: aqueous buffer; Sodium Phosphate Buffer at pH 7.4
measured_metric: solubility (µg/mL)
Numeric only. Scale: µg/mL

-- ask Which measured solubility value corresponds to CC[C@H](C)C(=O)N1CCC(CC(=O)Nc2ccc(OC(F)(F)F)cc2F)CC1 ?
-- reply 2.6
